Assay: yeast display, Sf9 membrane polyspecificity reagent, FACS + sequencing; frameworks hold sequencing errors
measurement type: polyreactivity (PSR sort gate)

Below, each entry is followed by its recorded polyreactivity (PSR sort gate) result.
{"columns": ["sequence code", "polyreactivity (PSR sort gate)"],
 "data": [
  ["QVQLVESVGGLVQAGGSLRLSCAASGFTFRHYVMGWYRQQPGKERELVAAIDVRGGSTYYADSVKGRFTISRDNAKNTVYLQMNSLKPEDTAVYYCAKRLIPRLPNLQKMDYWGQGTQVTVSS", "low polyreactivity"],
  ["QVQLVESGGGLVQAGGRLRLSCAASVNTFGANAMGWYRQAPGKESELVADITQSGGSTYYADSVKGRFTISRDNAKNTVYLQMNSLKPEDTALYYCNIVTRYYTPFEEYDYWGQGTQVTVSS", "low polyreactivity"],
  ["QVQLVESGVGLVQAGGSLRLSCAASGSIFFYAMGWYRQAPGKERELVADITYTGGSKYADSVKGRFTISRDNAKNTVYLQMNSLKPEDTAVYYCAKLDGGLFDYWGQGTQVTVSS", "low polyreactivity"],
  ["QVQLVESGGGLVQAGGSLRLSCAASGRIFPYNTMGLYRQAPGKERELVAAISRRGGSTYYADSVKGRFTISRDNAKNTVYLQMNSLKPEDTAVYYCNAVKPRDYGGLAYDYWGQGTQVTVSS", "high polyreactivity"],
  ["QVQLVESGGGLVQAGGSLRLSCAASGRTFTSNAMGWYRQAPGKERELVAAISNRGTRTYYADSVKGRFTISRDNAKNTVYLQMNSLKPEDTAVYYCAASERDQRFKHYYWGQGTQVTVSS", "high polyreactivity"]
]}

Data request: # input sequence: QVQLVESGGGLVQAGGSLRLSCAASGSTFYWYTMGWYRQAPGKERELVATITSSGGRTYYADSVKGRFTISRDNAKNTVYLQMNSLKPEDTAVYYCAAYRRNSRWELDYWGQGTQVTVSS ; wanted: its polyreactivity (PSR sort gate)
Data returned: high polyreactivity

Data request: And then QVQLVESGGGLVQAGGSLRLSCAATRSIFSLYTMGWYRQAPGKERELVAVISSAGRTYYADSVKGRFTISRDNGKNTVYLQMNSLKPEDTAVYYCARLTGQRTQTRSDYWGQGTQVTVSS , what is it?
Data returned: high polyreactivity

Data request: And then QVQLVESVGGLVQAGGSLRLSCAASGNTFHTNAMGWYRQAPGKERELVAAITGGGSTYYADSVKGRFTISRDNAKNTVYLQMNSLKPEDTAVYYFNTDVPYGLDVSDTIDYYYWGQGTQVTVSS , what is it?
Data returned: low polyreactivity

Data request: And then QVQLVESGGGLVQAGGSLSLSSSASGRTFKGNAMGWYIQAPGKERELVAVITGSGGSTYYADSVKGRFTISRDNAKNTVYLQMNSLKPEDTAVYYCNKKLQRRSWYDYWGQGTQVTVSS , what is it?
Data returned: low polyreactivity

Data request: And then KVQLVESGGGLDQAGGSLRLSCAASGIIFAYNVMGRYRQAPGKERELVAAIRWGGGSTYADSVKGRFSISRDNAKNTVYLQMTRLKPEDTAVYYCNVERWWWSRTYCVKYDYWGQGTQVNVSS , what is it?
Data returned: high polyreactivity

Data request: And then QVQLVESGGGLVQAGGSLRLSCAASGFTFGVYAMGWYRQAPGKERELVAAISTTVGSTYYADSVKGRFTISRDNAKNTVYLEMNSLKPEDTAVYYCAAEYTGYINYYIYEYWGQGTQVTVSS , what is it?
Data returned: low polyreactivity
